Cited source: PubChem BioAssay AID1347156

EXPERIMENT_NOTES: DAPI mCherry counterscreen qHTS for Zika virus inhibitors; note: nearly all actives have a fitted effect of over 55% in size
STUDY_CONDITIONS: Vero cells, DAPI nuclear count cytotoxicity, imaging 48-72 h, infected with Zika reporter virus, MOI 1; series mostly up to 32.6 µM
Results filed as inconclusive are left out. Active and inactive are the calls of the source. Calls come from the whole dose curve; as a rule, active = well fitted cell-killing curve with a large enough effect; inconclusive = small, poorly fitted or top-dose-only effect; inactive = flat fitted curve, though single readings scatter.
Hi there, use one of these labels in your reply, thanks! active, inactive

[in] Record request — test call for CC(C)c1cc(C(C)C)c(CC(=O)NS(=O)(=O)Oc2c(C(C)C)cccc2C(C)C)c(C(C)C)c1
[out] active

[in] Returns: the outcome recorded for O=C(O)C(Cc1cc(I)c(O)c(I)c1)c1ccccc1 (stereo unspecified) in this assay.
[out] active

[in] GET /call?item= Cc1ccc(-n2[nH]c(C)c(N=Nc3cccc(-c4cccc(C(=O)O)c4)c3O)c2=O)cc1C returns the recorded outcome of this test.
[out] active

[in] Give the logged outcome of this assay for the following molecule: Oc1cc2ccccc2c2ccccc12
[out] active

[in] Call for entry Cc1ccc(S(=O)(=O)Nc2cc(SCC(=O)O)c(O)c3ccccc23)cc1[N+](=O)[O-] :
[out] active

[in] Dear all, I need the recorded test outcome for Cc1cc(NC(=O)c2ccc(Cl)c(Cl)c2)ccc1-c1cc2ccccc2oc1=O , thank you.
[out] active

[in] Would you mind telling me which call this test gave COc1ccc(C(=O)Nc2ccc(C(=O)OCc3cc(=O)n4nc(C(C)C)sc4n3)cc2)cc1 ?
[out] inactive

[in] Could you kindly confirm the outcome this assay logged for CC(C)=CCCC1(C)C=Cc2c(O)c3c(c(CC=C(C)C)c2O1)OC12C(=CCCC1C(C)(C)O[C@@]2(C/C=C(\C)C(=O)O)C(=O)O)C3=O (stereo partly specified) ?
[out] active

[in] Returns: the outcome recorded for O=C(O)CSc1nc2ccc(NC(=O)COc3ccc(Cl)cc3)cc2s1 in this assay.
[out] inactive

[in] Which outcome was entered for the molecule O=c1c(O)c(-c2ccc(O)c(O)c2)oc2cc(O)cc(O)c12 in this test?
[out] inactive

[in] Can you look up the reported call for Cc1cc(C)c2c(c1)C(N(Cc1cc(C(F)(F)F)cc(C(F)(F)F)c1)c1nnn(C)n1)CCCN2CC1CCC(C(=O)O)CC1 (stereo unspecified) for me?
[out] active

[in] Name the outcome recorded for O=C(O)CCc1ccc(-c2ccc(Cl)cc2)n1-c1cccc(C(F)(F)F)c1 in the assay.
[out] active

[in] Hi, do you know how CNC(=O)c1cc(Oc2ccc(NC(=O)Nc3ccc(Cl)c(C(F)(F)F)c3)cc2)ccn1 came out in this test?
[out] active

[in] For O=C(Nc1cccc(C(=O)OCc2cc(=O)n3nc(C4CC4)sc3n2)c1)c1cccc(F)c1 , what call appears in the results of this test?
[out] inactive

[in] I'd appreciate the recorded outcome for Oc1c(Cl)cc(Cl)c(Cl)c1Cc1c(O)c(Cl)cc(Cl)c1Cl from this test.
[out] active

[in] Which outcome was entered for the molecule CCN(Cc1cccc(S(=O)(=O)O)c1)c1ccc(C(=C2C=CC(=[N+](CC)Cc3cccc(S(=O)(=O)O)c3)C=C2)c2ccccc2S(=O)(=O)[O-])cc1 in this test?
[out] inactive
